Exercise: state measured MFI for each of the binders provided.
Biological target: T1, human ROR1 (Receptor Tyrosine Kinase-Like Orphan Receptor 1) on the cell surface (human, UniProt Q01973 30-937)
T1 construct: whole, on cells; engineered into B16-F10 (high density) and LS174T (low density) cells; also called B16-F10-ROR1-H; LS174T-ROR1-L
T1 sequence (Q01973 30-937): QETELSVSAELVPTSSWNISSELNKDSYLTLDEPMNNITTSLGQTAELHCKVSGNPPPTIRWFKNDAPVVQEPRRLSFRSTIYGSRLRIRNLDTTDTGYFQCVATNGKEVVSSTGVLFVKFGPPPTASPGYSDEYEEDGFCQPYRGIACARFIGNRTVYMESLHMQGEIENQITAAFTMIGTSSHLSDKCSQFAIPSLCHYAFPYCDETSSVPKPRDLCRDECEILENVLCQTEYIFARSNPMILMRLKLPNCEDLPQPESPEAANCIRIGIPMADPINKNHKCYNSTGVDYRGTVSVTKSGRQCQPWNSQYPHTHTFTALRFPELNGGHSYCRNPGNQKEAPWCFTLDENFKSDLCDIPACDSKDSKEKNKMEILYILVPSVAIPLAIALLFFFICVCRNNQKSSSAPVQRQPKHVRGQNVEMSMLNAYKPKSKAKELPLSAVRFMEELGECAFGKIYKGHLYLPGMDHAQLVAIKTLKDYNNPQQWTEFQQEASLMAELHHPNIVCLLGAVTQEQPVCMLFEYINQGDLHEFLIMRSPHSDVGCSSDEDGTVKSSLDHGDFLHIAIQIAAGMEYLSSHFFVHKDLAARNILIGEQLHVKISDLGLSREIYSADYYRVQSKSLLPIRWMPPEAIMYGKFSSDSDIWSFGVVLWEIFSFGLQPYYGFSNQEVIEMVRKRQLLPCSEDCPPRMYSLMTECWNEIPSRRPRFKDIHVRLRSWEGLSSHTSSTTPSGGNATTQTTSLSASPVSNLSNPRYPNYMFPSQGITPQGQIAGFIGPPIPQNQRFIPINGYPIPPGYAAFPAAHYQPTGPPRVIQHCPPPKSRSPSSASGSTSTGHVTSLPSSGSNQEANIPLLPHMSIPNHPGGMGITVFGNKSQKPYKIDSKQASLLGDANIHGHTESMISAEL
Test: flow cytometry, LS174T cells expressing human ROR1 (low density)
One number for each entry.

>>> reported_measurement("FUSE-559 (h5A1-FA9-HK1 Fc) (Fc fusion, VHH-Fc format; also called humanized clone 5A1-FA9-HK1; not shown: Fc of the VHH-Fc format) EVQLLESGGGLVQPGGSLRLSCTASGYTNRLKCMGWFRQAPGKEREEIASISTGTGNTYYADSVKGRFTISRDKSRNTLYLQMNTLRAEDTAVYYCAADVRPHGTTCHYNSRGQGTQVTVSS")
24400
>>> reported_measurement("F221581012 (h5A1-BI-012 Fc) (Fc fusion, VHH-Fc format; also called F22158112; not shown: Fc of the VHH-Fc format) EVQLLESGGGLVQPGGSLRLSCAASGYTNRLKCMGWFRQAPGKEREEVASISTGTGNTYYADSVKGRFTISQDKSKNTLYLQMNSLKAEDTAVYYCAADVRPFGRTCHYNSRGQGTLVTVSS")
14200
>>> reported_measurement("F221581011 (h5A1-BI-011 Fc) (Fc fusion, VHH-Fc format; also called F22158111; not shown: Fc of the VHH-Fc format) EVQLLESGGGLVQPGGSLRLSCAASGYTNRIKCMGWFRQAPGKEREEVASISTGTGNTYYADSVKGRFTISQDKSKNTLYLQMNSLKAEDTAVYYCAADVRPFGTTCHYNSRGQGTLVTVSS")
19400
>>> reported_measurement("F22158109 (h5A1-BI-009 Fc) (Fc fusion, VHH-Fc format; not shown: Fc of the VHH-Fc format) EVQLLESGGGLVQPGGSLRLSCAASGYTNRIKCMGWFRQAPGKEREEVASISTGTGNSYYADSVKGRFTISQDKSKNTLYLQMNSLKAEDTAVYYCAADVRPDGRTCHYNKRGQGTLVTVSS")
35000

Working through the 2 binders below one at a time, give MFI for each.
1. F221581014 (h5A1-BI-014 Fc) (Fc fusion, VHH-Fc format; also called F22158114; not shown: Fc of the VHH-Fc format) EVQLLESGGGLVQPGGSLRLSCAASGYTNRIKCMGWFRQAPGKEREEVASISTGTGNTYYADSVKGRFTISQDKSKNTLYLQMNSLKAEDTAVYYCAADVRPFGRTCHYNSRGQGTLVTVSS
2. F221581010 (h5A1-BI-010 Fc) (Fc fusion, VHH-Fc format; also called F22158110; not shown: Fc of the VHH-Fc format) EVQLLESGGGLVQPGGSLRLSCAASGYTNRLKCMGWFRQAPGKEREEVASISTGTGNTYYADSVKGRFTISQDKSKNTLYLQMNSLKAEDTAVYYCAADVRPDGRTCHYNKRGQGTLVTVSS

1. 28700
2. 18700

Working through the 2 binders below one at a time, give MFI for each.
1. F22158105 (h5A1-BI-005 Fc) (Fc fusion, VHH-Fc format; not shown: Fc of the VHH-Fc format) EVQLLESGGGLVQPGGSLRLSCAASGYTNRLKCMGWFRQAPGKEREEVASISTGTGNTYYADSVKGRFTISQDKSKNTLYLQMNSLKAEDTAVYYCAADVRPDGFTCHYNKRGQGTLVTVSS
2. F221581020 (h5A1-BI-020 Fc) (Fc fusion, VHH-Fc format; also called F22158120; not shown: Fc of the VHH-Fc format) EVQLLESGGGLVQPGGSLRLSCAASGYTNRLKCMGWFRQAPGKEREEVASISTGTGNAYYADSVKGRFTISQDKSKNTLYLQMNSLKAEDTAVYYCAADVRPHGTTCHYNKRGQGTLVTVSS

1: 22300; 2: 26500
